Sourced from the supplement of paper PMC9112550

System: Escherichia coli TOP10
TEST NAME: shrunken log2 fold change of peptide-encoding DNA abundance (4.5 h post-induction vs induction); higher = less antimicrobial activity (less host growth inhibition)
RUN CONDITIONS: time post-induction: 4.5 h; library: site-saturation at positions 5, 18, 19, 20
ENDPOINT: shrunken log2 fold change
Write the value as a bare number.

The reported Escherichia coli TOP10 shrunken log2 fold change of `RRIRWRPPRLPRPRPRPDCEPRP` is 2.54

The reported Escherichia coli TOP10 shrunken log2 fold change of `RRIRERPPRLPRPRPRPSQSPRP` is -0.346

The reported Escherichia coli TOP10 shrunken log2 fold change of `RRIRARPPRLPRPRPRPQHKPRP` is 0.292

The reported Escherichia coli TOP10 shrunken log2 fold change of `RRIRVRPPRLPRPRPRPYDSPRP` is -0.126

The reported Escherichia coli TOP10 shrunken log2 fold change of `RRIRHRPPRLPRPRPRPHAVPRP` is -0.0488

The reported Escherichia coli TOP10 shrunken log2 fold change of `RRIRARPPRLPRPRPRPHIDPRP` is 0.205

The reported Escherichia coli TOP10 shrunken log2 fold change of `RRIRIRPPRLPRPRPRPWCPPRP` is 0.0944

The reported Escherichia coli TOP10 shrunken log2 fold change of `RRIRPRPPRLPRPRPRPIRCPRP` is 0.125

The reported Escherichia coli TOP10 shrunken log2 fold change of `RRIRCRPPRLPRPRPRPPGWPRP` is 0.612

The reported Escherichia coli TOP10 shrunken log2 fold change of `RRIRCRPPRLPRPRPRPWLIPRP` is -0.564

The reported Escherichia coli TOP10 shrunken log2 fold change of `RRIRKRPPRLPRPRPRPCYSPRP` is -0.178

The reported Escherichia coli TOP10 shrunken log2 fold change of `RRIRDRPPRLPRPRPRPEWFPRP` is 0.257

The reported Escherichia coli TOP10 shrunken log2 fold change of `RRIRARPPRLPRPRPRPWSRPRP` is -0.151

The reported Escherichia coli TOP10 shrunken log2 fold change of `RRIRARPPRLPRPRPRPARQPRP` is 0.766

The reported Escherichia coli TOP10 shrunken log2 fold change of `RRIRWRPPRLPRPRPRPEETPRP` is 0.0603

* * *

Test system: Escherichia coli TOP10;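 note: peptides expressed intracellularly from a pBAD plasmid library in pooled LB shake-flask culture, induced with 0.3% L-arabinose, DNA abundance read by NGS, three biological replicates, DESeq2 with apeglm shrinkage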
TEST NAME: shrunken log2 fold change of peptide-encoding DNA abundance (4.5 h post-induction vs induction); higher = less antimicrobial activity (less host growth inhibition)
RUN CONDITIONS: time post-induction: 4.5 h; library: site-saturation at positions 5, 18, 19, 20
Label scheme for shrunken log2 fold change: lower than -0.08 is False, -0.08 and above is True.

Entry `RRIRFRPPRLPRPRPRPNSSPRP` : is its shrunken log2 fold change no less than -0.08?
False

Entry `RRIRIRPPRLPRPRPRPNLGPRP` : is its shrunken log2 fold change no less than -0.08?
False

Entry `RRIRMRPPRLPRPRPRPMDSPRP` : is its shrunken log2 fold change no less than -0.08?
True

Entry `RRIRRRPPRLPRPRPRPLPQPRP` : is its shrunken log2 fold change no less than -0.08?
True

Entry `RRIRERPPRLPRPRPRPTNSPRP` : is its shrunken log2 fold change no less than -0.08?
False

Entry `RRIRERPPRLPRPRPRPYNSPRP` : is its shrunken log2 fold change no less than -0.08?
True

Entry `RRIRKRPPRLPRPRPRPHRDPRP` : is its shrunken log2 fold change no less than -0.08?
False

Entry `RRIRLRPPRLPRPRPRPFMMPRP` : is its shrunken log2 fold change no less than -0.08?
False

Entry `RRIRRRPPRLPRPRPRPALMPRP` : is its shrunken log2 fold change no less than -0.08?
True

Entry `RRIRMRPPRLPRPRPRPVKSPRP` : is its shrunken log2 fold change no less than -0.08?
True

Entry `RRIRERPPRLPRPRPRPDPGPRP` : is its shrunken log2 fold change no less than -0.08?
True

Entry `RRIRYRPPRLPRPRPRPYSLPRP` : is its shrunken log2 fold change no less than -0.08?
False

Entry `RRIRKRPPRLPRPRPRPTYKPRP` : is its shrunken log2 fold change no less than -0.08?
False

Entry `RRIRKRPPRLPRPRPRPCCVPRP` : is its shrunken log2 fold change no less than -0.08?
True

Entry `RRIRLRPPRLPRPRPRPLYYPRP` : is its shrunken log2 fold change no less than -0.08?
False

Entry `RRIRCRPPRLPRPRPRPLNTPRP` : is its shrunken log2 fold change no less than -0.08?
False

Entry `RRIRNRPPRLPRPRPRPYDWPRP` : is its shrunken log2 fold change no less than -0.08?
True

Entry `RRIRWRPPRLPRPRPRPMSIPRP` : is its shrunken log2 fold change no less than -0.08?
False

Entry `RRIRVRPPRLPRPRPRPSFSPRP` : is its shrunken log2 fold change no less than -0.08?
False

Entry `RRIRRRPPRLPRPRPRPALQPRP` : is its shrunken log2 fold change no less than -0.08?
True

Entry `RRIRPRPPRLPRPRPRPCVLPRP` : is its shrunken log2 fold change no less than -0.08?
True

Entry `RRIRQRPPRLPRPRPRPAKQPRP` : is its shrunken log2 fold change no less than -0.08?
True

Entry `RRIRRRPPRLPRPRPRPYIHPRP` : is its shrunken log2 fold change no less than -0.08?
False

Entry `RRIRFRPPRLPRPRPRPHPRPRP` : is its shrunken log2 fold change no less than -0.08?
True

Entry `RRIRWRPPRLPRPRPRPLPMPRP` : is its shrunken log2 fold change no less than -0.08?
True

Entry `RRIRKRPPRLPRPRPRPPDWPRP` : is its shrunken log2 fold change no less than -0.08?
True

Entry `RRIRARPPRLPRPRPRPIQGPRP` : is its shrunken log2 fold change no less than -0.08?
True

Entry `RRIRPRPPRLPRPRPRPDHDPRP` : is its shrunken log2 fold change no less than -0.08?
False

Entry `RRIRYRPPRLPRPRPRPPSPPRP` : is its shrunken log2 fold change no less than -0.08?
True

Entry `RRIRGRPPRLPRPRPRPEGDPRP` : is its shrunken log2 fold change no less than -0.08?
True

Entry `RRIRVRPPRLPRPRPRPRMEPRP` : is its shrunken log2 fold change no less than -0.08?
True
